Reference source for all entries: ChEMBL document CHEMBL5678814

- target-or-test-system: Mast/stem cell growth factor receptor Kit (Homo sapiens, UniProt P10721)
- Sequence (P10721 whole entry): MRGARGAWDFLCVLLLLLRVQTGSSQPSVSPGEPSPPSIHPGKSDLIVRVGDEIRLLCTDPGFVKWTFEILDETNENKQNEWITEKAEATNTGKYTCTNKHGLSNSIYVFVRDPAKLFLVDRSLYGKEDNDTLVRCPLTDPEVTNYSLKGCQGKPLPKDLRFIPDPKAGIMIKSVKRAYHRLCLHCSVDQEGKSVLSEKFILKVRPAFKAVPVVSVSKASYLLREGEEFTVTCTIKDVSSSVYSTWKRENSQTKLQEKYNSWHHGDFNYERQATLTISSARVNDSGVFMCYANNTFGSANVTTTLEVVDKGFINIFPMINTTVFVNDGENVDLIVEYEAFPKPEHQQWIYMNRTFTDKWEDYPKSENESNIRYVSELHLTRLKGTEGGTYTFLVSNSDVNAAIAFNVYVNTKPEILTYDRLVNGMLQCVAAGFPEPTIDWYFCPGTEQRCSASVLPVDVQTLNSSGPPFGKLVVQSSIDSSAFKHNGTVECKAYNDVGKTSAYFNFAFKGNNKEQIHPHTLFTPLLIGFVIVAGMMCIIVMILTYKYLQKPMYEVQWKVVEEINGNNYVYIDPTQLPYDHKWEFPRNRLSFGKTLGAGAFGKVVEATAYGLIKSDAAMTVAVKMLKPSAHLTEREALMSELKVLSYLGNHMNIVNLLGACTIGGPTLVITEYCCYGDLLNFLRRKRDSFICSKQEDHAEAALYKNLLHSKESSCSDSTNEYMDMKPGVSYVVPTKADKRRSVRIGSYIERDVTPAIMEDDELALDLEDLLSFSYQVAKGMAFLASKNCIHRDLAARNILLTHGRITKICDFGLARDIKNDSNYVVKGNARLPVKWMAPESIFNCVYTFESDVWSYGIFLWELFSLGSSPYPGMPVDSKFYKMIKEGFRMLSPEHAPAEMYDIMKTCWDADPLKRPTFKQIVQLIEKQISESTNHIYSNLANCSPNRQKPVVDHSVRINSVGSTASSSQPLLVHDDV
property-name: Kd (nM)

{"columns": ["smiles-code", "property-name", "result-unit", "observed-measurement"],
 "data": [
  ["COc1cc(S(C)(=O)=O)ccc1Nc1nc2ccc(-c3ccc(NC(=O)[C@H](C)c4ccc(F)cc4)cc3)cn2n1", "Kd", "nM", 370]
]}

* * *

- target-or-test-system: Misshapen-like kinase 1 (Homo sapiens)
- Sequence (Q8N4C8 whole entry): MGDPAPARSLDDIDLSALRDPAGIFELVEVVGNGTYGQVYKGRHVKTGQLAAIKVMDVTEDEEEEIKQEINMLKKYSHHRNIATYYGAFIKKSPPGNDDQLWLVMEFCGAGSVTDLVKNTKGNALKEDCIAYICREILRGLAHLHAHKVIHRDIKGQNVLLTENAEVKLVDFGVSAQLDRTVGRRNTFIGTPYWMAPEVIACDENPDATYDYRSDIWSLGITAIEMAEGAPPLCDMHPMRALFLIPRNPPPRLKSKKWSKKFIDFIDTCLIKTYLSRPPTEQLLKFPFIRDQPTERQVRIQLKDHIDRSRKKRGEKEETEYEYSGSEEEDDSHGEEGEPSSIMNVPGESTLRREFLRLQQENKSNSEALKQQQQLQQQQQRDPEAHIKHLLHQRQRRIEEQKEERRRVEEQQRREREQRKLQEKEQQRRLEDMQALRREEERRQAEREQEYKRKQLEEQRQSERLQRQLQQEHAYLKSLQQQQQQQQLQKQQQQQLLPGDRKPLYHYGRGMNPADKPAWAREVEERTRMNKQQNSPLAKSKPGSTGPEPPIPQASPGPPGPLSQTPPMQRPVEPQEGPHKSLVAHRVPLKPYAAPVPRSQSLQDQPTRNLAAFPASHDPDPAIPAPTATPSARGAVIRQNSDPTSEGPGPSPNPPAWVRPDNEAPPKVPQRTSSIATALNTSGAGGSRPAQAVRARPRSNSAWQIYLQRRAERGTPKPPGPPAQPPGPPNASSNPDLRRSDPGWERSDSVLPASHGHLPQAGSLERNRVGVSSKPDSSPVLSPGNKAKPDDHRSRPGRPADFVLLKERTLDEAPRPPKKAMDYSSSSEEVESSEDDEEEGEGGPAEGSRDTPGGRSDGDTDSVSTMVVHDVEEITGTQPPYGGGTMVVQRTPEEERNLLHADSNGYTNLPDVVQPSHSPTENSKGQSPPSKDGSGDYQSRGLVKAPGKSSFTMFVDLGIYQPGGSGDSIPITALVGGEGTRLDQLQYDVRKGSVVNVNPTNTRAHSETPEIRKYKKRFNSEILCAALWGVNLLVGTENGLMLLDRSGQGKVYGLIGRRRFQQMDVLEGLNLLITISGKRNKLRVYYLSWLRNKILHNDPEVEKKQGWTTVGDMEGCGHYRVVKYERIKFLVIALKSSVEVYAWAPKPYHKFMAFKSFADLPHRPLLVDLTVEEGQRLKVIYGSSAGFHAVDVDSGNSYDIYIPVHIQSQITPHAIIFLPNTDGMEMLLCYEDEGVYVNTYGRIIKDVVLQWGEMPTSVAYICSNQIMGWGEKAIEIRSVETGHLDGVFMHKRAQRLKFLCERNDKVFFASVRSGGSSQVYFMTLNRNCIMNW

{"columns": ["smiles-code", "Kd"],
 "data": [
  ["COc1cc(S(C)(=O)=O)ccc1Nc1nc2ccc(-c3ccc(NC(=O)[C@H](C)c4ccc(F)cc4)cc3)cn2n1", "40 µM"]
]}

* * *

- experimental-protocol: Antiproliferative activity against human A2780cis cells assessed as cell growth inhibition incubated for 96 hrs by crystal violet staining
pIC50: −log10 of the molar value.

{"columns": ["smiles-code", "pIC50"],
 "data": [
  ["COc1cc(S(C)(=O)=O)ccc1Nc1nc2ccc(-c3ccc(NC(=O)[C@H](C)c4ccc(F)cc4)cc3)cn2n1", 7.22]
]}

* * *

- experimental-protocol: Tmax in female NMRI mouse plasma at 1 mg/kg, po measured after 24 hrs by LC/-MS/MS analysis

{"columns": ["smiles-code", "Tmax"],
 "data": [
  ["COc1cc(S(C)(=O)=O)ccc1Nc1nc2ccc(-c3ccc(NC(=O)[C@H](C)c4ccc(F)cc4)cc3)cn2n1", "4 h"],
  ["COc1ccc(Oc2cc(NCCC(F)(F)F)c3ncc(-c4ccc(C(=O)NC5CC5)c(C)c4)n3n2)c(F)c1F", "7 h"]
]}

* * *

- experimental-protocol: Clearance in male Wistar rat blood at 0.5 mg/kg, iv measured after 24 hrs by LC/-MS/MS analysis
- Assay type: ADME, organism-based

{"columns": ["compound", "clearance (mL/min/kg)"],
 "data": [
  ["COc1cc(S(C)(=O)=O)ccc1Nc1nc2ccc(-c3ccc(NC(=O)[C@H](C)c4ccc(F)cc4)cc3)cn2n1 [BAY-1161909]", 3.17],
  ["COc1ccc(Oc2cc(NCCC(F)(F)F)c3ncc(-c4ccc(C(=O)NC5CC5)c(C)c4)n3n2)c(F)c1F [BAY-1217389]", 9]
]}

* * *

- experimental-protocol: Volume of distribution at steady state in male CD1 mouse plasma at 0.5 mg/kg, iv measured after 24 hrs by LC/-MS/MS analysis
- Assay type: ADME, organism-based
- stated-conditions: read-out: Vdss
property-name: Vd

{"columns": ["smiles-code", "property-name", "observed-measurement"],
 "data": [
  ["COc1cc(S(C)(=O)=O)ccc1Nc1nc2ccc(-c3ccc(NC(=O)[C@H](C)c4ccc(F)cc4)cc3)cn2n1", "Vd", "3.4 L/kg"]
]}

* * *

- target-or-test-system: Serine/threonine-protein kinase 38 (Homo sapiens, UniProt Q15208)
- Sequence (Q15208 whole entry): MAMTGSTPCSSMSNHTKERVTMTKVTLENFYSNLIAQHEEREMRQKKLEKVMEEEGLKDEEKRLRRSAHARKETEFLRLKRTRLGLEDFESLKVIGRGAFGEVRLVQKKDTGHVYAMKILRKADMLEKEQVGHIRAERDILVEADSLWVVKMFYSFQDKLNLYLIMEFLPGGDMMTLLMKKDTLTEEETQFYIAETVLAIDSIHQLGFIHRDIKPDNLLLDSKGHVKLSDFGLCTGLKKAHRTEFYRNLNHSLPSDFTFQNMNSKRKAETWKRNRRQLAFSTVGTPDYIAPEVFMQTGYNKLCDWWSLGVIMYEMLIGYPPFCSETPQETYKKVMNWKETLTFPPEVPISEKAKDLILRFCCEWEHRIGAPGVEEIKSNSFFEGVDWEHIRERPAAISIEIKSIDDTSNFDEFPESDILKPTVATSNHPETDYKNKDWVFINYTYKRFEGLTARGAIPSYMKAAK
pKd: −log10 of the molar value.
property-name: pKd

{"columns": ["compound", "target-or-test-system", "observed-measurement"],
 "data": [
  ["COc1cc(S(C)(=O)=O)ccc1Nc1nc2ccc(-c3ccc(NC(=O)[C@H](C)c4ccc(F)cc4)cc3)cn2n1 [BAY-1161909]", "Serine/threonine-protein kinase 38 (Homo sapiens, UniProt Q15208)", 4.40]
]}

* * *

- experimental-protocol: Cmax in female NMRI mouse plasma at 1 mg/kg, po measured after 24 hrs by LC/-MS/MS analysis

{"columns": ["compound", "Cmax / ng/mL"],
 "data": [
  ["COc1ccc(Oc2cc(NCCC(F)(F)F)c3ncc(-c4ccc(C(=O)NC5CC5)c(C)c4)n3n2)c(F)c1F [BAY-1217389]", 74],
  ["COc1cc(S(C)(=O)=O)ccc1Nc1nc2ccc(-c3ccc(NC(=O)[C@H](C)c4ccc(F)cc4)cc3)cn2n1 [BAY-1161909]", 120]
]}
